Data origin, for the record: patent US20260209316A1

Biological target: T1, full-length Sudan GP (GPFL) (Sudan virus (SUDV), UniProt Q7T9D9 33-650)
T1 construct: also called Sudan GPFL; GP(S)FL
T1 sequence: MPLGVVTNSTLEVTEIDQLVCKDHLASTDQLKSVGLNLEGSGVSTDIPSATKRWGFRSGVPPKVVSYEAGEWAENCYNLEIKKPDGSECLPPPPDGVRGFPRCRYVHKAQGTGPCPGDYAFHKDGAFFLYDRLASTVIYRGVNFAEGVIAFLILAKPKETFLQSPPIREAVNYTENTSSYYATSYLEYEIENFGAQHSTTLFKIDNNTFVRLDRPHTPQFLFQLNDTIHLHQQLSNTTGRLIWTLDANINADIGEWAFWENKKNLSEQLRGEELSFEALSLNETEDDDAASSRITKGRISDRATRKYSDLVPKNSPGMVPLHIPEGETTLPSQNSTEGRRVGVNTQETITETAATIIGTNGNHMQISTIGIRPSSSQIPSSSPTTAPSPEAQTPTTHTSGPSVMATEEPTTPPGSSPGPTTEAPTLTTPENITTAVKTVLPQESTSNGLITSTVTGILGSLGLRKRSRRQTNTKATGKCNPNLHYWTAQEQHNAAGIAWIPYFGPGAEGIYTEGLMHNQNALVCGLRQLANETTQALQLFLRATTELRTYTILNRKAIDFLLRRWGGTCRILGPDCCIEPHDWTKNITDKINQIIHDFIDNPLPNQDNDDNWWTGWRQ
Assay: BLI, Fab, pH 7.4
Listing: koff of selected binders
Numeric only. Scale: s⁻¹

Example cases with answers are listed next.
1) Fab generated from 233S (Fab, V domains shown) VH: EVQLVESGGGLGQPGGSLRLSCAASGFKFKIFGMNWVRQAPGKGLEWVSYISSRSSIIYYADSVKGRFTISRDDATNSLFLQMNSLRDEDTAMYYCVRDYNLIDFVWGSLFDYWGQGILVTVSS VL: AIRMTQSPSSLSASTGDSVTITCRASQNIASYLAWYQQIPGKAPKLLIYVASTLQSGVPSRFSGSGSGTDFTLTISSLQSEDFATYYCQQYYRYPPTFGQGTKVEIK    0.000543
2) Fab generated from 523S (Fab, V domains shown, also called 523S Fab) VH: QVQLVQSGAELKKPGASVKVSCKASGYTFSDHYVHWVRQAPGQGLEWMGRINPNSGGTNYAQRFLGRVTMTRDASISTAYLDLSSLRSDDTAVYYCARSSSSWSGHYYYYMDVWGKGTTVTVSS VL: QSVLTQPPSVSAAPGQRVTISCSGSTSNIASNFVSWYQQLPGTAPKLLIYDNHKRPSGIPDRFSGSKSGTSATLGITGLQTGDEADYYCGTWDSSLSAGVFGGGTKVTVL    0.000148
3) Fab generated from 354S (Fab, V domains shown, also called 354S Fab) VH: QVQLVQSGAEVKKPGASVKVSCKASGYSFASYYIHWVRQAPGQGLEWMGIINPSGGTTSYAQKFQGRVTMTRDTSTSTVYMELSSLGSEDTAVYYCARIVDRVTIYLNGVDNYWGQGTLVTVSS VL: EIVMTQSPATLSVSPGERVTLSCRASQSVSSNLAWFQQTPGQAPRLLIYGASTRASGVPARFSGSGSGTEFTLTISSLQSEDFAVYYCLQYNNWPPGWKYGFGQGTKLEIK    0.00076
4) Fab generated from 294S (Fab, V domains shown, also called 294S Fab) VH: QVQLQESGPGLVKPSQTLSLTCTVSGGSISSGGYHWSWIRQHPGKGLEWIGNIYYNGRTYYNPSLKSRVTISVDTSENEFSLKLSSVTAADTAVYYCARDRRRPRIGHDYGMDVWGQGTKVIVSS VL: DIQMTQSPSSLSASVGDRVTISCRASQSISNFLNWYQQKPGQAPKLLIYTASNLQSGVPSRFSGSGSGTDFTLTISSLQPEDFATYYCQQIYNTGMYSFGQGTKLEIK    0.00135

Query: Which koff is reported for this binder? Fab generated from 573S (Fab, V domains shown, also called 573S Fab) VH: EVQLVESGGGLVKPGGSLRLSCAASGFTFSSYTMNWVRQAPGKGLEWVSCIRSSSSDKYYADSVKGRFTISRDNTKNSLYLQMNSLRADDTAVYYCARDLGGANNRYYFDYGMDVWGQGTTVTVSS VL: EIVMTQSPATLSVSPGGRATLSCRASQSVYTNLAWYQQKPGQAPRLLIYDASTRATGIPARFSGSGSGTEFTLTISSLQCEDFAVYYCQHYNNWPLYTFGQGTKLEIK
Response: 0.000252

Query: Fab generated from 241S (Fab, V domains shown) VH: QVQLVQSGSELKKPGASVKVSCKASGYTFTSYTVNWVRQAPGQGLEWMGWINTNTGNPTYAQGFTGRFVFSSDTSVSTAYLQISDLKAEDTAMYYCARHVAYDLWSGHTVTFDHWGQGTLVTVSS VL: QSALTQPPSASGSPGQSVTISCTGTSSDVGAYNYVSWYQQHPGKAPKLIIYEVTKRPSGVPDRFSGSKSGNTASLTVSGLQAEDEADYYCSSKAGGKTYVFGTGTKVTVL , same question.
Response: 0.000439

Query: Fab generated from 541S (Fab, V domains shown, also called 541S Fab) VH: QVQLVQSGAEVKKPGASVKVSCKASGYTFTNYAITWVRQAPGQGLEWMGWISAFNGQINYAQKFQGRVAMTTDTSTSTAYMELRSLRSDDTAVYYCARAPPMWFSGAKFDYWGQGTLVTVSS VL: QSVLTQPPSVSGTPGQRVTISCSGSSSNIGSNTVNWYQQLPGTAPKLLIYSNDQRPSGVPDRFSGSKSGTSASLAISGLRSEDEADYYCAAWDETLRRVFGGGTRLTVL , same question.
Response: 0.000482

Query: Fab generated from 503S (Fab, V domains shown, also called 503S Fab) VH: QVQLVQSGAEVKKPGASVRVSCKASGYTFTSYYMHWVRQAPGQGLEWMGQINPSGGTTRYERKFQGRITVTRDTSTSTVYLELSSLRSEDTASYFCACLRDKVTYYDLWSGVDSVWGQGTLVTVSS VL: DIQMTQSPSSLSASVGDRVTITCRASQDISTWLAWYQQKPEKAPKSLIYAASTLETGVPSRFSGSGSGTDFTLTISSLQPEDFATYYCEQYNGFPRTFGQGTKLDIK , same question.
Response: 0.00111
